target-or-system: recombinant soluble tissue factor and recombinant human factor VIIa (TF-VIIa) (Homo sapiens)
Construct: conversion of coagulation factor VII to VIIa by Xa; purchased American Diagnostica, Greenwich Conn; host or cells: factor VIIa purchased; soluble TF made in house in E. coli
Sequence (P08709 213-466 limits assumed): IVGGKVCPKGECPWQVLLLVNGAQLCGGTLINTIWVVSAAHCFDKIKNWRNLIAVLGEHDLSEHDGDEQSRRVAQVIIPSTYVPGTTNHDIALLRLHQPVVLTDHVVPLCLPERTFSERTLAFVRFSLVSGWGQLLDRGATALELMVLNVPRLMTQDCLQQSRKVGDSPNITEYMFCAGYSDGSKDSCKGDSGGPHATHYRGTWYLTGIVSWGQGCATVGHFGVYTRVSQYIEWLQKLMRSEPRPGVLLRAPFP
Sequence (P08709 61-212 limits assumed): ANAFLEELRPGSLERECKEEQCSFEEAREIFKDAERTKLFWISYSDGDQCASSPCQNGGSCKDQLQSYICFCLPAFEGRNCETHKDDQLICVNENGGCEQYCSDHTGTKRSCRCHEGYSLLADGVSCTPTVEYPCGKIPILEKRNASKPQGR
Sequence (P13726 33-251 partner limits assumed): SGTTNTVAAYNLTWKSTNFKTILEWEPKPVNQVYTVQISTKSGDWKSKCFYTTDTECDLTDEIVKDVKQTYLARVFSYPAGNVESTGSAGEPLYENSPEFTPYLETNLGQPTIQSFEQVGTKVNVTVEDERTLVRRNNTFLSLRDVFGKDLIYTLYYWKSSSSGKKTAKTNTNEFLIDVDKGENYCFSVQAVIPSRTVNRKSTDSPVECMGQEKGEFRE
assay-text: TF-VIIa Assay
Format: biochemical
condition-notes: inhibitor at 100 νM

[
  {
    "compound": "Cc1c(Cl)nc(NCCc2cccnc2)c(=O)n1CC(=O)NCCc1ccncc1",
    "display-unit": "%",
    "% Inhibition TF-VIIa (100 νM)": 0
  },
  {
    "compound": "O=C(Cn1c(-c2cccc(Cl)c2)c(Cl)nc(NCCc2cccc(Cl)c2)c1=O)NCCc1cccnc1 [Example E-0080]",
    "display-unit": "%",
    "% Inhibition TF-VIIa (100 νM)": 1
  },
  {
    "compound": "O=C(Cn1c(-c2ccccc2)c(Cl)nc(NCCc2ccc(Cl)cc2)c1=O)NCCc1ccncc1",
    "display-unit": "%",
    "% Inhibition TF-VIIa (100 νM)": 0
  },
  {
    "compound": "COc1ccc(-c2c(Cl)nc(NCc3ccccc3)c(=O)n2CC(=O)NCCc2cccnc2)cc1",
    "display-unit": "%",
    "% Inhibition TF-VIIa (100 νM)": 0
  },
  {
    "compound": "O=C(Cn1c(-c2ccc(Cl)cc2)c(Cl)nc(NCCc2ccccc2)c1=O)NCCc1ccncc1 [Example E-0018]",
    "display-unit": "%",
    "% Inhibition TF-VIIa (100 νM)": 1
  },
  {
    "compound": "O=C(Cn1c(-c2ccccc2)c(Cl)nc(NCc2ccncc2)c1=O)NCCc1ccncc1",
    "display-unit": "%",
    "% Inhibition TF-VIIa (100 νM)": 0
  },
  {
    "compound": "O=C(Cn1c(Cc2ccccc2)c(Cl)nc(NCCc2ccccc2)c1=O)NCCc1ccncc1",
    "display-unit": "%",
    "% Inhibition TF-VIIa (100 νM)": 0
  },
  {
    "compound": "Cc1c(Cl)nc(NCCc2ccccc2)c(=O)n1CC(=O)NCCc1ccncc1",
    "display-unit": "%",
    "% Inhibition TF-VIIa (100 νM)": 0
  },
  {
    "compound": "O=C(Cn1c(-c2ccccc2)c(Cl)nc(NCCc2ccncc2)c1=O)NCCc1ccncc1",
    "display-unit": "%",
    "% Inhibition TF-VIIa (100 νM)": 0
  },
  {
    "compound": "O=C(Cn1c(-c2cccc(Cl)c2)c(Cl)nc(NCCc2ccccc2)c1=O)NCCc1ccncc1 [Example E-0088]",
    "display-unit": "%",
    "% Inhibition TF-VIIa (100 νM)": 0
  },
  {
    "compound": "O=C(Cn1c(-c2cccc(Cl)c2)c(Cl)nc(NCCc2ccccc2)c1=O)NCCc1cccnc1 [Example E-0089]",
    "display-unit": "%",
    "% Inhibition TF-VIIa (100 νM)": 3
  },
  {
    "compound": "O=C(Cn1c(CCc2ccccc2)c(Cl)nc(NCc2ccccc2)c1=O)NCCc1ccncc1",
    "display-unit": "%",
    "% Inhibition TF-VIIa (100 νM)": 0
  },
  {
    "compound": "O=C(Cn1c(CCc2ccccc2)c(Cl)nc(NCCc2ccccc2)c1=O)NCCc1ccncc1",
    "display-unit": "%",
    "% Inhibition TF-VIIa (100 νM)": 0
  },
  {
    "compound": "O=C(Cn1c(CCc2ccccc2)c(Cl)nc(NCCN2CCOCC2)c1=O)NCCc1ccncc1",
    "display-unit": "%",
    "% Inhibition TF-VIIa (100 νM)": 0
  },
  {
    "compound": "O=C(Cn1c(Cc2ccccc2)c(Cl)nc(NCCc2cccnc2)c1=O)NCCc1ccncc1",
    "display-unit": "%",
    "% Inhibition TF-VIIa (100 νM)": 0
  },
  {
    "compound": "O=C(Cn1c(-c2ccc3c(c2)OCO3)c(Cl)nc(NCc2ccccc2)c1=O)NCCc1ccncc1",
    "display-unit": "%",
    "% Inhibition TF-VIIa (100 νM)": 0
  },
  {
    "compound": "O=C(Cn1c(CCc2ccccc2)c(Cl)nc(NCc2ccncc2)c1=O)NCCc1ccncc1",
    "display-unit": "%",
    "% Inhibition TF-VIIa (100 νM)": 0
  },
  {
    "compound": "COc1ccc(-c2c(Cl)nc(NCCc3cccc(Cl)c3)c(=O)n2CC(=O)NCCc2ccncc2)cc1 [Example E-0035]",
    "display-unit": "%",
    "% Inhibition TF-VIIa (100 νM)": 4
  },
  {
    "compound": "O=C(Cn1c(-c2ccc3c(c2)OCO3)c(Cl)nc(NCCc2ccncc2)c1=O)NCCc1ccncc1",
    "display-unit": "%",
    "% Inhibition TF-VIIa (100 νM)": 0
  },
  {
    "compound": "Cc1c(Cl)nc(NCCc2ccncc2)c(=O)n1CC(=O)NCCc1ccncc1",
    "display-unit": "%",
    "% Inhibition TF-VIIa (100 νM)": 2
  },
  {
    "compound": "O=C(Cn1c(-c2ccc(Cl)cc2)c(Cl)nc(NCCc2ccc(Cl)cc2)c1=O)NCCc1ccncc1 [Example E-0028]",
    "display-unit": "%",
    "% Inhibition TF-VIIa (100 νM)": 0
  },
  {
    "compound": "O=C(Cn1c(Cc2ccccc2)c(Cl)nc(NCCc2cccc(Cl)c2)c1=O)NCCc1ccncc1",
    "display-unit": "%",
    "% Inhibition TF-VIIa (100 νM)": 0
  },
  {
    "compound": "O=C(Cn1c(-c2ccc(Cl)cc2)c(Cl)nc(NCCc2ccc(Cl)cc2)c1=O)NCCc1ccncc1 [Example E-0020]",
    "display-unit": "%",
    "% Inhibition TF-VIIa (100 νM)": 0
  },
  {
    "compound": "O=C(Cn1c(-c2cccc(Cl)c2)c(Cl)nc(NCc2ccccc2)c1=O)NCCc1cccnc1 [Example E-0074]",
    "display-unit": "%",
    "% Inhibition TF-VIIa (100 νM)": 0
  },
  {
    "compound": "COc1ccc(-c2c(Cl)nc(NCc3ccccc3)c(=O)n2CC(=O)NCCc2ccncc2)cc1 [Example E-0033]",
    "display-unit": "%",
    "% Inhibition TF-VIIa (100 νM)": 0
  },
  {
    "compound": "O=C(Cn1c(-c2cccc(Cl)c2)c(Cl)nc(NCCc2ccc(Cl)cc2)c1=O)NCCc1cccnc1 [Example E-0083]",
    "display-unit": "%",
    "% Inhibition TF-VIIa (100 νM)": 2
  },
  {
    "compound": "O=C(Cn1c(-c2ccc(Cl)cc2)c(Cl)nc(NCCc2ccccc2)c1=O)NCCc1ccncc1 [Example E-0026]",
    "display-unit": "%",
    "% Inhibition TF-VIIa (100 νM)": 0
  },
  {
    "compound": "O=C(Cn1c(-c2cccc(Cl)c2)c(Cl)nc(NCCc2cccc(Cl)c2)c1=O)NCCc1ccncc1 [Example E-0091]",
    "display-unit": "%",
    "% Inhibition TF-VIIa (100 νM)": 1
  },
  {
    "compound": "O=C(Cn1c(-c2cccc(Cl)c2)c(Cl)nc(NCc2ccccc2)c1=O)NCCc1ccncc1 [Example E-0085]",
    "display-unit": "%",
    "% Inhibition TF-VIIa (100 νM)": 0
  },
  {
    "compound": "Cc1c(Cl)nc(NCCN2CCOCC2)c(=O)n1CC(=O)NCCc1ccncc1",
    "display-unit": "%",
    "% Inhibition TF-VIIa (100 νM)": 0
  },
  {
    "compound": "O=C(Cn1c(-c2cccc(Cl)c2)c(Cl)nc(NCc2ccccc2)c1=O)NCCc1cccnc1 [Example E-0086]",
    "display-unit": "%",
    "% Inhibition TF-VIIa (100 νM)": 0
  }
]

----------
target-or-system: Trypsin (type 1× from porcine pancreas) (Sus scrofa)
Construct: Trypsin (5 ug/ml; type 1× from porcine pancreas); purchased Sigma, St. Louis Mo; host or cells: porcine pancreas
Sequence (P00761 9-231): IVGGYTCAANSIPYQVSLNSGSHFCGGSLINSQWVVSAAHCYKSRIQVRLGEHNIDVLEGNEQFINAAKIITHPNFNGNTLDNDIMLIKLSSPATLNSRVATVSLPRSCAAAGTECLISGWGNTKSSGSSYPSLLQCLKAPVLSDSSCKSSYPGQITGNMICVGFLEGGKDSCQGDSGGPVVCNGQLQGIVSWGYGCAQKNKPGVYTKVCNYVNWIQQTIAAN
assay-text: Trypsin Assay
Format: biochemical
condition-notes: at 30 µM
A collection of compounds and their measured % Inhibition Trypsin II (30 µM)
parameter-measured: % Inhibition Trypsin II (30 µM) (%)

[
  {
    "compound": "Cc1c(Cl)nc(NCCc2ccc(Cl)cc2)c(=O)n1CC(=O)NCc1ccc(C(=N)N)cc1 [1471-2]",
    "parameter-measured": "% Inhibition Trypsin II (30 µM)",
    "display-unit": "%",
    "recorded-value": 0
  },
  {
    "compound": "CC(C)Nc1nc(Cl)c(-c2cccc([N+](=O)[O-])c2)n(CC(=O)NCc2ccc(C(N)=NO)cc2)c1=O [Example 61]",
    "parameter-measured": "% Inhibition Trypsin II (30 µM)",
    "display-unit": "%",
    "recorded-value": 10
  },
  {
    "compound": "N=C(N)NCC#CCNC(=O)Cn1c(-c2ccccc2)cnc(NCCc2ccccc2)c1=O [Example 36]",
    "parameter-measured": "% Inhibition Trypsin II (30 µM)",
    "display-unit": "%",
    "recorded-value": 30
  }
]
